System: GDP-bound protein (aa 1-169), containing both G12C and C118A amino acid substitutions (Homo sapiens, UniProt P01116, C118A/G12C)
Sequence (P01116 1-169 isoform P01116-2 G12C/C118A): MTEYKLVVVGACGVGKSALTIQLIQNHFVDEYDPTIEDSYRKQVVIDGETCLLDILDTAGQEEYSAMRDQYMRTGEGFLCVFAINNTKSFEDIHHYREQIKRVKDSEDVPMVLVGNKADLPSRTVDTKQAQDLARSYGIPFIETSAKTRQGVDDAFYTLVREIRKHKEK
Measurement Description: Coupled Nucleotide Exchange Assay (SOS-mediated nucleotide exchange, AlphaScreen)
Type: biochemical
Assay Conditions: 2 hours compound pre-incubation
Endpoint Name: Coupled exchange IC50 (nM)

Reference set, count: 6
# Compound, Endpoint Name, Numeric Result
measured = [
    ("C=CC(=O)N1CCN(c2snc3nc(-c4c(C)ccc5[nH]ncc45)c(Cl)cc23)C(C)C1 (racemic) [Example 2-6]", "Coupled exchange IC50", 1590),
    ("C=CC(=O)N1CCN(c2snc3c(F)c(-c4cc(NC(C)=O)ccc4C)c(Cl)cc23)CC1", "Coupled exchange IC50", 6490),
    ("C=CC(=O)N1CCN(c2snc3c(F)c(-c4cc(N)c(Cl)cc4Cl)c(Cl)cc23)CC1", "Coupled exchange IC50", 2990),
    ("C=CC(=O)N1CC(Nc2snc3c(F)c(Br)c(Cl)cc23)C1", "Coupled exchange IC50", 125000),
    ("C=CC(=O)N1CCN(c2nc(=O)n(-c3ccccc3C(C)C)c3cc(-c4cc(N)ccc4Cl)c(Cl)cc23)[C@@H](C)C1", "Coupled exchange IC50", 113),
    ("C=CC(=O)N1CCN(c2snc3nc(-c4c(C)ccc5[nH]ncc45)c(Cl)cc23)C(C)C1 (single isomer, unassigned) [Example 2-6-2]", "Coupled exchange IC50", 1250),
]

A. C=CC(=O)N1CCC[C@@H](Nc2snc3c(F)c(Br)c(Cl)cc23)C1
B. C=CC(=O)N1CCN(c2nc(=O)n(-c3ccccc3C(C)C)c3cc(-c4c(O)cccc4F)c(Cl)cc23)CC1 (single isomer, unassigned) [Example 8-1-2]
Which entry shows the lesser value of Coupled exchange IC50 here, A or B ? Answer with the label corresponding to your selection.
B
(B: 322 nM, A: 177000 nM)

I. C=CC(=O)N1CCN(c2nnc(C3CC3)c3cc(-c4c(O)cccc4F)c(Cl)cc23)CC1
II. C=CC(=O)N1CCN(c2snc3c(F)c(-c4cc(O)cc5ccccc45)c(Cl)cc23)C[C@@H]1CO (racemic)
// task: argmin of Coupled exchange IC50 over [ I , II ] Indicate your choice by writing its label.
II
(II: 492 nM, I: 3340 nM)

a. C=CC(=O)N1CCN(c2snc3c(F)c(-c4cc(O)cc5ccccc45)c(Cl)cc23)CC1 (single isomer, unassigned) [Example 3-1-1]
b. C=CC(=O)N1CC(Nc2snc3c(F)c(-c4cc(O)cc5ccccc45)c(Cl)cc23)C1
c. C=CC(=O)N1CCN(c2snc3c(F)c(-c4nc(NC)cc5ccccc45)c(Cl)cc23)CC1
Hello, I need these entries ordered by Coupled exchange IC50, highest reading first. Thanks! The labels, placed in the requested order, form the answer.
c, a, b
(c: 6200 nM, a: 3000 nM, b: 683 nM)

---

System: Phosphorylation of ERK½ in MIA PaCa-2 cells
Measurement Description: Phospho-ERK½ MSD Assay in MIA PaCa-2 cells
Assay type: cell-based
Assay Conditions: MIA PaCa-2 cells; 4 hours compound treatment; 10 ng/mL EGF for 10 min; read-out: p-ERK IC50 (MIA PaCa-2)
pIC50: −log10 of the molar value.
Endpoint Name: pIC50

A. C=CC(=O)N1CCN(c2snc3c(F)c(-c4cc(O)cc5ccccc45)c(Cl)cc23)[C@@H](C)C1 [Example 1-19]
B. C=CC(=O)N1CCN(c2nc(=O)n(-c3ccncc3C3CC3)c3cc(-c4c(O)cccc4F)c(Cl)cc23)[C@@H](C)C1 (single isomer, unassigned) [Example 9-7-1]
Given the listed items, does A or B have the lesser reported pIC50? Indicate which entry you chose by stating its label.
A
(A: 5.88, B: 7.64)

Measured values drawn from patent US11285135B2 for this set.
